experiment: UV-Vis spectroscopy: absorption maximum and extinction coefficient; assay type: physicochemical; conditions: Table 2
experimental.readout: λmax (nm)

Query :: What does the record list as λmax for CC(=O)OCC1=C2C(C)=CC(C=Cc3ccccc3)=[N+]2[B-](F)(F)n2c(C=Cc3ccccc3)cc(C)c21 ?
Result :: 640

Query :: What does the record list as λmax for COc1ccc(/C=C/C2=[N+]3C(=C(COC(C)=O)c4c(C)cc(/C=C/c5ccc(OC)cc5)n4[B-]3(F)F)C(C)=C2)cc1 [Compound 10a] ?
Result :: 661

Query :: What does the record list as λmax for COc1ccc(/C=C/c2cc(C)c3n2[B-](F)(F)[N+]2=C(C)C=C(C)C2=C3COC(C)=O)cc1 ?
Result :: 586

Query :: What does the record list as λmax for CC(=O)OCC1=C2C(C)=CC(C)=[N+]2[B-](F)(F)n2c(C=Cc3ccc(N(C)C)cc3)cc(C)c21 ?
Result :: 633

Query :: What does the record list as λmax for COCCOCCOCCOc1ccc(C=CC2=[N+]3C(=C(CO)c4c(C)cc(C=Cc5ccc(OCCOCCOCCOC)cc5)n4[B-]3(F)F)C(C)=C2)cc1 [Compound 11b] ?
Result :: 667
